// data source = PubChem BioAssay (Tox21)

# experiment: A CellTox Green Cytotoxicity Assay to monitor cytotoxicity in HepG2 cells - 32 hour (AID 1224883); also: nearly all actives have a fitted effect of over 50% in size; also: potency is read from the fitted curve at half-maximal effect
# condition.details: CellTox Green fluorescence; series mostly up to 76.8 µM
Results filed as inconclusive are left out. Activity calls are given as the source filed them. Calls follow the shape of the dose curve; as a rule, active = well fitted activation curve with a large enough effect in the repeat runs; inconclusive = weak or mixed curves; inactive = flat fitted curve, though single readings scatter.
quantity.kind: Potency

[[record]]
smiles_notation = "Cc1ccc(N/N=c2\\c(=O)cc/c(=N\\Nc3ccc(S(=O)(=O)O)cc3)c2=O)c(C)c1"
result = "inactive"

[[record]]
smiles_notation = "CCc1oc2ccccc2c1C(=O)c1cc(I)c(O)c(I)c1"
result = "inactive"

[[record]]
smiles_notation = "c1ccsc1"
result = "inactive"

[[record]]
smiles_notation = "CC(C)OC(=O)C(O)(CC(=O)O)CC(=O)O"
result = "inactive"

[[record]]
smiles_notation = "O=[N+]([O-])c1cccc(C(F)(F)F)c1"
result = "inactive"

[[record]]
smiles_notation = "CN1CCN(Cc2cc(-c3ccc4[nH]c(=O)oc4c3)co2)[C@@H](c2ccc(F)cc2)C1"
result = "42 µM (active)"

[[record]]
smiles_notation = "C=CCn1c(=O)n(CC=C)c(=O)n(CC=C)c1=O"
result = "inactive"

[[record]]
smiles_notation = "Cc1cccc(C)c1NC(=O)c1ccc(N)cc1"
result = "inactive"

[[record]]
smiles_notation = "CCN(CC)c1ccc2c(-c3ccc(S(=O)(=O)O)cc3S(=O)(=O)[O-])c3ccc(=[N+](CC)CC)cc-3oc2c1"
result = "inactive"

[[record]]
smiles_notation = "CC(C)(C)c1csc(-c2cc3cc(OCc4ccccc4CC(=O)O)ccc3o2)n1"
result = "54.9 µM (active)"

[[record]]
smiles_notation = "CC[N+](CC)(CC)CCOC(=O)C(C1CCCC1)C1CCCC1"
result = "inactive"

[[record]]
smiles_notation = "ClCCl"
result = "inactive"

[[record]]
smiles_notation = "CCN(CCN)c1cccc(C)c1"
result = "inactive"

[[record]]
smiles_notation = "CCCCNS(=O)(=O)c1ccc(C)cc1"
result = "4.9 µM (active)"

[[record]]
smiles_notation = "CCCCCCCCCCCCOC(=O)c1ccc(O)cc1"
result = "inactive"

[[record]]
smiles_notation = "S=c1nccc[nH]1"
result = "inactive"

[[record]]
smiles_notation = "CN(C)Cc1cc(C(C)(C)C)c(O)c(C(C)(C)C)c1"
result = "inactive"

[[record]]
smiles_notation = "O=C(O)CCN(C1(C(=O)NO)CCCC1)S(=O)(=O)c1ccc(Oc2ccc(F)cc2)cc1"
result = "inactive"

[[record]]
smiles_notation = "Clc1sc(Cl)c(Cl)c1Cl"
result = "inactive"

[[record]]
smiles_notation = "CCCNCCC"
result = "inactive"

[[record]]
smiles_notation = "Cc1c(C)c([N+](=O)[O-])c(C(C)(C)C)c([N+](=O)[O-])c1C"
result = "inactive"

[[record]]
smiles_notation = "Cc1cc(=O)oc2cc(O)cc(O)c12"
result = "inactive"

[[record]]
smiles_notation = "CCC(COC(=O)CCS)(COC(=O)CCS)COC(=O)CCS"
result = "inactive"

[[record]]
smiles_notation = "O=[N+]([O-])c1ccc(F)c(Cl)c1"
result = "inactive"

[[record]]
smiles_notation = "O=c1[nH]c2ccccc2n1CCCN1CCN(C(c2ccccc2)c2ccccc2)CC1"
result = "23.9 µM (active)"

[[record]]
smiles_notation = "CCOC(=O)Cn1cccc1-c1nc(-c2ccc(OC)cc2)c(-c2ccc(OC)cc2)s1"
result = "inactive"

